- System: L. donovani-infected THP-1 macrophages, intracellular amastigote imaging
- procedureSummary: antileishmanial activity in infected THP-1 macrophages – imaging, THP-1 host macrophages, host toxicity (AID 1159564)
- statedConditions: measured here: THP-1 host cell toxicity
Response field label takes true (1) when IC50 is strictly below 10 µM and false (0) in all other cases.

{"columns": ["compound", "classification"],
 "data": [
  ["COc1ccc(CNc2cc(C3CC3)nc(-c3nccn3C)n2)cc1", "false (0)"],
  ["CC(C)c1cc(Nc2cc(Cc3ccccc3)nc(NC3CCC(O)CC3)n2)n[nH]1 (centres undefined)", "true (1)"],
  ["C=CCn1nc([N+](=O)[O-])nc1Oc1ccc(Cl)cc1Cl", "false (0)"],
  ["COc1cccc(NS(=O)(=O)c2ccc3[nH]cc(C(=O)NCCC(C)C)c(=O)c3c2)c1", "false (0)"],
  ["Cc1[nH]n2c(=O)c3c(nc2c1-c1ccc(Cl)cc1)CCCC3", "false (0)"],
  ["N#Cc1cccc(Cc2cc(Nc3cc(C4CC4)[nH]n3)nc(N3CC[C@H]3C(N)=O)n2)c1", "true (1)"],
  ["O=S(=O)(c1ccccc1C(F)(F)F)N1CCN(Cc2ccc(-n3ccnc3)cc2)CC1", "false (0)"],
  ["CCOC(=O)c1noc(N)c1-c1ccccc1", "false (0)"],
  ["O=[N+]([O-])c1cccc(Nc2cncc(-c3ccccc3CO)c2)c1", "false (0)"],
  ["CCc1ccccc1[C@@H](C)NC(=O)c1cnc2c(cnn2CC)c1NC1CCN(C(N)=O)CC1", "false (0)"],
  ["O=C(CCCNC(=O)c1ccc(Cl)cc1)Nc1nc(-c2ccccn2)cs1", "false (0)"],
  ["O=S(=O)(NCC(c1cccnc1)N1CCN(c2ccccc2F)CC1)c1ccc(F)cc1 (centres undefined)", "false (0)"],
  ["CCN(CC)S(=O)(=O)c1ccc(Cn2nc(C(=O)Nc3ccncn3)c3ccccc32)cc1", "false (0)"],
  ["COc1cccc(S(=O)(=O)Nc2ccc3c(c2)CC(N2CCC(NC(=O)C4CC4)CC2)C3)c1 (centres undefined)", "false (0)"],
  ["CS(=O)(=O)NC1CCC(Nc2ncc(Br)c(Nc3ccccc3C(N)=O)n2)CC1 (centres undefined)", "true (1)"],
  ["O=S(=O)(c1cccc(CSc2nnc(-c3ccc4c(c3)OCO4)o2)c1)N1CCOCC1", "false (0)"],
  ["O=C(Nc1cccc(Cl)c1)N1CCCCC1c1cccnc1 (centres undefined)", "false (0)"],
  ["O=C(COc1ccccc1)Nc1ccccc1C(=O)Nc1nccs1", "true (1)"],
  ["COc1ccc2ncc(F)c(CCN3CC[C@@H](NC(=O)c4cc5c(s4)CCC5)[C@@H](O)C3)c2n1", "false (0)"]
]}
